# targetOrSystem: GCN2 (Homo sapiens, UniProt Q9P2K8)
# Sequence (Q9P2K8 192-1024): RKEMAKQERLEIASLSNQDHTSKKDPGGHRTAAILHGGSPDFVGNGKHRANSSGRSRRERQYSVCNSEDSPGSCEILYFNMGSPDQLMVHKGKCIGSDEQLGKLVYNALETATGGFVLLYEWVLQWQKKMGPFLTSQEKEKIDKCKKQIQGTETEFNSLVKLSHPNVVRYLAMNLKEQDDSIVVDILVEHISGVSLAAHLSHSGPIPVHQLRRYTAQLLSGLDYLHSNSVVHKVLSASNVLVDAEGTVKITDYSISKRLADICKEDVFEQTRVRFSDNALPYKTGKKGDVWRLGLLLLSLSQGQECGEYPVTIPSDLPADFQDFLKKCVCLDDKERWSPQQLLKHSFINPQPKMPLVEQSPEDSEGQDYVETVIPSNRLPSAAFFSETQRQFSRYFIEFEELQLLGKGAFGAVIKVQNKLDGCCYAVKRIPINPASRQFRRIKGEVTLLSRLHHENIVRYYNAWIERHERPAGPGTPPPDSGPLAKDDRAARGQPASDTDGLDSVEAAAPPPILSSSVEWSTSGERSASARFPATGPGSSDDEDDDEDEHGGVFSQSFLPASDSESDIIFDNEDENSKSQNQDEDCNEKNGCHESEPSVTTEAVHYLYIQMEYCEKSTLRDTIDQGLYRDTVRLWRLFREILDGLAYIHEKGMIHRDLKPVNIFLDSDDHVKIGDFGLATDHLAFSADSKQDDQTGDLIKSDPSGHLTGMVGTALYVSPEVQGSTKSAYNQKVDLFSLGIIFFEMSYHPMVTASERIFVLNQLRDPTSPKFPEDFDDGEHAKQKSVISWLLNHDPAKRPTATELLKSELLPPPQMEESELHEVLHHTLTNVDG
# assay: In vitro phosphorylation assay: GCN2 activation (auto-phosphorylation)
# particulars: read-out: apparent IC50, GCN2's activation (autophosphorylation)
pIC50: −log10 of the molar value.
assayEndpoint: pIC50

query: Given the compound c1nn(C2CCOCC2)cc1Nc1ncc2nnn(-c3ccc4cn[nH]c4c3)c2n1 [A-92] , what is its reported pIC50?
result: ~6.70

====

# targetOrSystem: IN–GCN2 interaction (UniProt P04585+Q9P2K8)
# Construct: Recombinant full-length IN was expressed in E. coli BL21 pLys; IN made in house in E. coli BL21 pLys E12-11G
# Sequence (Q9P2K8 192-1024, other chains not shown): as the sequence (Q9P2K8 192-1024) above
# assay: IN–GCN2 interaction assay (AlphaLISA)
# particulars: read-out: apparent IC50, IN–GCN2 interaction
assayEndpoint: IC50

query: Field: IC50 (IN–GCN2 interaction (UniProt P04585+Q9P2K8)). Entry: "CCN1C[C@@H](C)n2c(c(O)c3c(=O)n(Cc4ccc(F)c(Cl)c4)nc(C(=O)NC)c32)C1=O"
result: ~100 µM
